TEST_NAME: Pharmacokinetics of Compound 1 in combination with MK-3475 in subjects with various cancers
Format: in vivo, human
STATED_CONDITIONS: human, plasma, oral, 100 mg, Diagnosis NSCLC PD-L1 High, first dose, mean ± SD
ENDPOINT_NAME: Cmax (nM)
Output spec: scalar in nM, unitless text.

Field Cmax (entry `NS(=O)(=O)NCCNc1nonc1C(=NO)Nc1ccc(F)c(Br)c1` ) reads 1020

* * *

TEST_NAME: Dose-escalation study of Compound 1 pharmacokinetics in subjects with advanced malignancies (tablets of Formulations 1 and/or 3, fasted; food effect cohort)
Type: in vivo, human
STATED_CONDITIONS: 300 mg BID, steady state, mean ± SD
ENDPOINT_NAME: Cmax (nM)
Output spec: scalar in nM, unitless text.

Field Cmax (entry `NS(=O)(=O)NCCNc1nonc1C(=NO)Nc1ccc(F)c(Br)c1` ) reads 2480
